- experimental_target: 5-HT transporter (Rattus norvegicus)
- Construct: from tissue; host or cells: rat brain synaptosomes (marrow/medulla and pons), P2 fraction
- Sequence (P31652 whole entry): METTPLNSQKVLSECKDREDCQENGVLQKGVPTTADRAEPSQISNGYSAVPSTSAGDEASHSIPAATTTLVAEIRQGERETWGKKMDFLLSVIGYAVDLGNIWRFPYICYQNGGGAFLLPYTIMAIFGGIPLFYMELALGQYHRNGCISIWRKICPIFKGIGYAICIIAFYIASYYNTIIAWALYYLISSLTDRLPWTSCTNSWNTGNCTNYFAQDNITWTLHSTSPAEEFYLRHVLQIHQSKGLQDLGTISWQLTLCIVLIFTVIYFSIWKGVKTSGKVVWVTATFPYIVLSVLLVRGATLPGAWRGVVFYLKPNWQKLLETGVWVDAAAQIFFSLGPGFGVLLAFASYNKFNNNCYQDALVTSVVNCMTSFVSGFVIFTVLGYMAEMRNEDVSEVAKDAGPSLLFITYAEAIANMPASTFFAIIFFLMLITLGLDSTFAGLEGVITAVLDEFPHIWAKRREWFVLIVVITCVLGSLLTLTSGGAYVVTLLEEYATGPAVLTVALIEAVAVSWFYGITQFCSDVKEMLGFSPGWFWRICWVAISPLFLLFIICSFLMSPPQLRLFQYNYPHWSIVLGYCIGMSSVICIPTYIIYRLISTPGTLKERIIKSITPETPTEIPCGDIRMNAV
- experiment_description: Inhibition of 5-HT uptake in synaptosomes
- Type: biochemical
- condition_description: rat, 1 μM
readout_name: Uptake_5-HT, rat, 1 μM, % inhibition (%)
Express it in %; write the number only.

**Query** Consider the compound shown here: CC(C)C1NC2(CCN(C(=S)Nc3c(F)c(F)c(F)c(F)c3F)CC2)N(Cc2ccccc2)C1=O (stereo not shown) What is its recorded Uptake_5-HT, rat, 1 μM, % inhibition?
**Result** 34

**Query** Another compound to check: CCCCN1C(=O)C(Cc2ccccc2)NC12CCN(S(=O)(=O)c1ccc(CC)cc1)CC2 (stereo not shown)
**Result** 67

**Query** Another compound to check: `CCC(C)(C)c1ccc(S(=O)(=O)N2CCC3(CC2)NCC(=O)N3Cc2ccccc2C#N)cc1`
**Result** 57

**Query** Another compound to check: CCCCN1C(=O)C(CCSC)NC12CCN(C(=S)Nc1cc(Cl)ccc1Cl)CC2 (stereo not shown)
**Result** 58

**Query** Another compound to check: CCOC(=O)CN1C(=O)C(Cc2ccccc2)NC12CCN(S(=O)(=O)c1ccc(OC)cc1)CC2 (stereo not shown)
**Result** 79

**Query** Another compound to check: `COC(=O)c1ccc(CN2C(=O)CNC23CCN(S(=O)(=O)Cc2ccccc2)CC3)cc1`
**Result** 62

**Query** Another compound to check: CSCCC1NC2(CCN(C(=O)Nc3cccc(F)c3)CC2)N(Cc2ccccc2C#N)C1=O (stereo not shown)
**Result** 55

**Query** Another compound to check: CCCCN1C(=O)C(CCSC)NC12CCN(S(=O)(=O)c1ccc(C(C)=O)cc1)CC2 (stereo not shown)
**Result** 56

**Query** Another compound to check: CC(C)C1NC2(CCN(S(=O)(=O)c3ccc([N+](=O)[O-])cc3)CC2)NC1=O (stereo not shown)
**Result** 55

**Query** Another compound to check: CCOC(=O)CN1C(=O)C(Cc2ccccc2)NC12CCN(S(=O)(=O)c1c(C)cc(C)cc1C)CC2 (stereo not shown)
**Result** 75

**Query** Another compound to check: CSCCC1NC2(CCN(C(=O)Nc3cccc(C(C)=O)c3)CC2)N(Cc2ccccc2C#N)C1=O (stereo not shown)
**Result** 45

**Query** Another compound to check: CSCCC1NC2(CCN(S(=O)(=O)c3ccccc3C(F)(F)F)CC2)N(Cc2ccc(F)cc2)C1=O (stereo not shown)
**Result** 58

**Query** Another compound to check: C=CCN1C(=O)C(CCSC)NC12CCN(S(=O)(=O)c1ccccc1S(C)(=O)=O)CC2 (stereo not shown)
**Result** 30

**Query** Another compound to check: CSCCC1NC2(CCN(C(=S)Nc3cc(C(F)(F)F)ccc3Cl)CC2)N(Cc2ccccc2C#N)C1=O (stereo not shown)
**Result** 33

**Query** Another compound to check: CCOC(=O)CN1C(=O)C(Cc2ccccc2)NC12CCN(S(=O)(=O)Cc1ccccc1)CC2 (stereo not shown)
**Result** 69

**Query** Another compound to check: CCOC(=O)CN1C(=O)C(Cc2ccccc2)NC12CCN(S(=O)(=O)c1ccccc1)CC2 (stereo not shown)
**Result** 64
